# Tested on: Escherichia coli TOP10;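 also: peptides expressed intracellularly from a pBAD plasmid library in pooled LB shake-flask culture, induced with 0.3% L-arabinose, DNA abundance read by NGS, three biological replicates, DESeq2 with apeglm shrinkage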
# assay.method.text: shrunken log2 fold change of peptide-encoding DNA abundance (4.5 h post-induction vs induction); higher = less antimicrobial activity (less host growth inhibition)
# assay.context: time post-induction: 4.5 h; library: site-saturation at positions 5, 18, 19, 20
Please mark 1 (yes) if the recorded shrunken log2 fold change is equal to or greater than 0.08, and 0 (no) if it falls below.

sequence_string=RRIRWRPPRLPRPRPRPYDQPRP category="0 (no)"
sequence_string=RRIRKRPPRLPRPRPRPPEEPRP category="1 (yes)"
sequence_string=RRIRVRPPRLPRPRPRPAQGPRP category="0 (no)"

Continue with the sequence presented below.
Q: Confirm if shrunken log2 fold change reported for the sequence RRIRQRPPRLPRPRPRPARHPRP is 0.08 or above.
Result: 1 (yes)
